Measured ELISA mIL-12RB2/control accompanies every entry in the list below.
Biological target: T1, biotinylated recombinant mouse IL-12Rβ2 (mouse, UniProt P97378 24-637, random biotinylated)
T1 construct: Recombinant protein produced in-house; also called mIL-12RB2; mouse IL-12RB2
T1 sequence: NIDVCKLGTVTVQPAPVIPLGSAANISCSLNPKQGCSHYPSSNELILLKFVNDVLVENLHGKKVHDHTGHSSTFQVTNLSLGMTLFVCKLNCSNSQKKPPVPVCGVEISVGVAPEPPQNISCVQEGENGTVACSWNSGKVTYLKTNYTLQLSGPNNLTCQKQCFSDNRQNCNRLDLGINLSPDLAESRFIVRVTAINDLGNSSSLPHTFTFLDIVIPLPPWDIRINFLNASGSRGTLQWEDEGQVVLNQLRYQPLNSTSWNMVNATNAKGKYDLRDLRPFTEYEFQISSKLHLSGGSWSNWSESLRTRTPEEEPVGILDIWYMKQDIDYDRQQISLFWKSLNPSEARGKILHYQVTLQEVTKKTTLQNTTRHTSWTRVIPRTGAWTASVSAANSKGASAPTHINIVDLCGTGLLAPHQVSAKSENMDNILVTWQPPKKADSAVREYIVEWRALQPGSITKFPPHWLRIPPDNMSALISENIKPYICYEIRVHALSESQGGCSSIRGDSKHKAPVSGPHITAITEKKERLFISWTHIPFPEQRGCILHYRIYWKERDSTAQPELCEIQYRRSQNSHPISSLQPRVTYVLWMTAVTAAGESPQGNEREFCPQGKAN
Assay: ELISA, P.E., biotinylated antigen
Just the number, please, no unit attached.

Some solved cases for reference:
Binder: anti-IL-12Rβ2 VHH clone 3CRHS51 (clone ID 20421) (VHH, not shown: small tags and cut ends, periplasmic extract) VHH: QVQLQESGGGLVQPGGSLRLSCAASGFTFSTYAMSWVRQAPGKGLEWVSAVNSGGLSTDYADSVEGRFTISRDDAKNMLFLQMNRLKPEDTARYYCAKYEDCSDYVCDRAGYWGQGTQVTVSS
Reading: 0.946
//
Binder: anti-IL-12Rβ2 VHH clone 2CRH80 (clone ID 20371) (VHH, not shown: small tags and cut ends, periplasmic extract) VHH: QVQLQESGGGLVQPGGSLRLSCAASGFTFSTSGMHWFRQAPGKGLEWVSSIGIIVGSSYYASSVKGRFTISRDNAKNTLYLHMNSLKSEDTAVYYCSKDVTGSSRGQGTQVTVSS
Reading: 1.23

What value of ELISA mIL-12RB2/control has been recorded for this entry: anti-IL-12Rβ2 VHH clone 3CAHS180 (clone ID 20410) (VHH, not shown: small tags and cut ends, periplasmic extract) VHH: QVQLQESGGGLVQAGDSLRLSCAASGRTFDTYIVGWFRQAPGKEREFVSALSWSDDTTIRDDSLRGRFTLSRDNAKNTVYLLMNSLKPEDTAVYYCAAKAKPPAATWSSYRNREWYDYWGQGTQVTVSS
1.19
